Tested on: KM12 colon
Assay: NCI tumour cell line growth inhibition, 48 h; in the data active = GI50 below about 0.43 µM; inactive = the rest
Labels: active, inactive

CCNc1nc(-c2ccc(Cl)c(OC)c2)c(-c2ccnc(NCCNS(=O)(=O)c3ccc(Cl)cc3)n2)s1
inactive
Cn1c(=O)c(-c2c(Cl)cccc2Cl)cc2cnc(Nc3ccc(N4CCOCC4)cc3)nc21
inactive
Brc1ccc2c(c1)-c1ccccc1C1=NCCN12
inactive
O=C(Nc1cccc(C(F)(F)F)c1)Nc1ccc(OCc2nnc(-c3ccccc3)o2)c(F)c1
inactive
COc1cc2c(cc1OCCCN1CCN(CCCn3c4ccccc4c4ccccc43)CC1)N=C[C@@H]1CCCN1C2=O
active

----------
Test system: MDA-MB-435
Experiment: NCI tumour cell line growth inhibition, 48 h
OBSERVATION_TYPE: TGI

CCc1c[nH]c2ncnc(N3CC[C@](N)(CNC(=O)c4ccc(F)cc4F)C3)c12
> 79.7 µM
O=C(COC(=O)[C@H](C[Se][Se]C[C@H](NC(=O)c1ccc(Br)cc1F)C(=O)OCC(=O)c1ccc(F)cc1)NC(=O)c1ccc(Br)cc1F)c1ccc(F)cc1
4.3 µM
Oc1ccc(/C=N/Nc2nnc(N/N=C/c3ccc(O)cc3O)c3ccccc23)c(O)c1
3.67 µM
COc1ccc2c(CCCCC(c3ccccc3)c3ccccc3)c3[n+](cc2c1OC)CCc1cc2c(cc1-3)OCO2
1.02 µM
Cc1ccc(C(=O)C2CC3(CCC2(O)c2ccc(C)cc2)CC(=O)Nc2ccccc2C3=O)cc1 (configuration not stated)
> 100 µM
CCc1nc2cc(F)ccc2[nH]c1=O
> 100 µM
O=C1c2sccc2C(=O)c2c(CO)csc21
4.62 µM
N#Cc1c(N)n(-c2nc3ccccc3s2)c(=O)c2cc([N+](=O)[O-])ccc12
> 69.1 µM
COc1ccc(Cl)cc1Nc1nc(C(F)(F)F)ccc1C(=O)N/N=C/c1ccc(Cl)cc1
> 100 µM
O=C1C(=O)c2c(ccc3ccccc23)-c2ccccc21
3.52 µM
N#Cc1c2c(c(Nc3ccc(Cl)cc3)n3c1nc1ccccc13)CCCC2
> 100 µM
O=C(Nc1nc2ccc([N+](=O)[O-])cc2s1)c1cc([N+](=O)[O-])ccc1Cl
16.4 µM
COc1ccc(S(=O)(=O)NCCCNc2nccc(-c3c(-c4ccc(F)cc4)nc4sccn34)n2)cc1
> 100 µM
CO/C(N)=C(\C#N)N=Cc1cccs1
73.3 µM
Cn1c(=O)c(Oc2ccc(F)cc2F)cc2cnc(NC3CCC(O)CC3)nc21 (configuration not stated)
> 25 µM
O=C(Nc1cccc(C(F)(F)F)c1)Nc1ccc(OCc2nnc(-c3ccccc3)o2)c(F)c1
89.8 µM
CC(C)C12CCC3(CCC4C(C)(C(=O)O)CCCC4(C)C3C1)C(CN)C2 (configuration not stated)
> 100 µM
CCOC(=O)c1sc2nc(SC)nc3c2c1NCN3c1ccccc1Cl
> 100 µM
COc1ccc(NC(=S)Nc2cccc(C)n2)cc1
> 100 µM
CN(C)c1ccc(/C=C2\CCCCCC2=O)cc1
> 100 µM
CC(=O)Oc1c(OC(C)C)cc(=O)n2ccsc12
31 µM
Cc1cc(C2(c3cc(C)c(O)c4ncccc34)OC(=O)c3ccccc32)c2cccnc2c1O
> 100 µM
OCCn1c(-c2ccncc2)c(-c2ccc(F)cc2)c2ncccc21
> 25 µM
CCOC(=O)c1c(SCCN(CC)CC)n(-c2ccccc2)c(=S)n(-c2ccccc2)c1=O
4.81 µM
O=C1CSC(c2cccc(Oc3ccccc3)c2)N1c1cc(Cl)ccc1Cl (configuration not stated)
40.2 µM
CCOC(=O)c1ccc(-c2cccs2)[nH]1
> 100 µM
COc1cc(COC(=O)NC(Cc2cccs2)C(=O)O)c([N+](=O)[O-])cc1OC (configuration not stated)
> 100 µM
CC(=O)Nc1ccc(C(=O)NN2C(=O)CSC2c2ccccc2)cc1 (configuration not stated)
> 100 µM
C/C(=N\NC(=O)c1ccncc1)c1ccccc1O
> 100 µM
CCC(=C(c1ccc(OCCN(CC)CC)cc1)c1ccc(OCCN(CC)CC)cc1)c1ccc(Cl)cc1
1.07 µM
ClCc1ccc(Cn2cnc3nc(Cl)nc(Cl)c32)cc1
3.19 µM
CCCCSC1=N/C(=C\c2ccccc2O)C(Cl)=N1
> 100 µM
Nn1c(=S)[nH]nc(/C=C/c2c(O)ccc3ccccc23)c1=O
> 100 µM
O=P1(C(O)c2ccccc2)N(Cc2ccccc2)[C@@H]2CCCC[C@H]2N1Cc1ccccc1 (some centres not stated)
71 µM
O=C1OC(c2ccccc2)=N/C1=C\c1ccc(N(CCCl)CCCl)cc1
> 100 µM
N=c1sc(N2CCOCC2)nn1CC(=O)c1ccccc1
> 100 µM
Cc1cc(NS(=O)(=O)c2ccc(NC(NC(=O)OC(C)C)(C(F)(F)F)C(F)(F)F)cc2)nc(C)n1
> 100 µM
CC(C)S1=C2C(=O)CC(C)(C)CC2=Nc2ccccc21 (configuration not stated)
> 100 µM
O=C(CCc1ccccc1)NCCc1ccc(O)c(O)c1
29.4 µM
COc1ccc(-c2cc(=O)c3cc(OC)c(OC)cc3[nH]2)cc1OC
> 100 µM
COc1cc([C@H]2c3cc(O)c(OC)cc3C[C@]3(O)[C@@H]2CO[C@@H]3O)ccc1O
> 100 µM
Cc1cc(N(CCCl)CCCl)ccc1/C=N\NC(=O)c1cccnc1
> 100 µM

----------
Test system: HOP-62 NSCLC
Experiment: NCI tumour cell line growth inhibition, 48 h
Recorded TGI values for a group of compounds are listed next.
OBSERVATION_TYPE: TGI

O=C(Nc1cccc(C(F)(F)F)c1)Nc1cc(S(=O)(=O)NC2CC2)ccc1-c1ccsc1
18.5 µM
CCN(CCCl)c1ccc(NC(=O)c2cc(C(=O)NCCN(C)C)cc(C(=O)Nc3ccc(N(CC)CCCl)cc3)c2)cc1
16.4 µM
COc1cc(COC(=O)NC(Cc2cccs2)C(=O)O)c([N+](=O)[O-])cc1OC (configuration not stated)
> 100 µM
O=C1Cc2c([nH]c3c(Br)cccc23)-c2ccccc2N1
> 100 µM
COC(=O)CCSC(=O)Nc1ccccc1Cl
> 100 µM
O=[N+]([O-])C1(CO)COC(CCc2ccccc2)OC1 (configuration not stated)
> 100 µM
CC(=O)Nc1ccc(C(=O)NN2C(=O)CSC2c2ccccc2)cc1 (configuration not stated)
> 100 µM
CN1OC(CO)CC12C1CC3CC(C1)CC2C3 (configuration not stated)
> 100 µM
O=NNc1nc(-c2ccccn2)nc2ccccc12
48.1 µM
COC(=O)C1=C(C)C(=O)C2(CCCCCC2C(=O)OC)C1 (configuration not stated)
> 100 µM
N#Cc1c(N)nc(N2CCOCC2)c(C#N)c1-c1ccc(Cl)cc1Cl
91.6 µM
COc1ccc(NC(=S)Nc2cccc(C)n2)cc1
64.3 µM
Nc1c(/C=C/c2cc3cc(C4=NCCN4)ccc3o2)[nH]c2cc(C3=NCCN3)ccc12
96 µM
N=c1sc(N2CCOCC2)nn1CC(=O)c1ccccc1
> 100 µM
O=C(Nc1cccc(C(F)(F)F)c1)Nc1ccc(OCc2nnc(-c3ccccc3)o2)c(F)c1
18 µM
Cn1c(=O)c(Oc2ccc(F)cc2F)cc2cnc(NC3CCC(O)CC3)nc21 (configuration not stated)
> 25 µM
COc1cccc2c(Nc3ccc(C(=O)NCCN4CCNCC4)cc3)cc(-c3ccccc3)nc12
> 100 µM
Nc1nc(N)c(-c2ccccc2)c(C(=O)Nc2nccs2)n1
> 100 µM
Cc1ccc(S(=O)(=O)NCc2cccc([N+](=O)[O-])c2)cc1
> 100 µM
O=C1OC(c2ccccc2)=N/C1=C\c1ccc(N(CCCl)CCCl)cc1
> 100 µM
COc1cccc(OC)c1/C=N\N1C(=O)c2ccccc2C1=O
> 100 µM
N#Cc1c2c(c(Nc3ccc(Cl)cc3)n3c1nc1ccccc13)CCCC2
> 100 µM

----------
System: OVCAR-5 ovarian
Assay: NCI tumour cell line growth inhibition, 48 h
Recorded TGI values for a group of compounds are listed next.
OBSERVATION_TYPE: TGI (µM)

CC(=O)Nc1ccc(C(=O)COc2cccc(/C=C3\CCc4ccccc4C3=O)c2)cc1
36.3
Cc1c(N(Cc2ccccc2)Cc2ccccc2)nc(S(C)(=O)=O)nc1S(C)(=O)=O
19.3

----------
Test system: EKVX NSCLC
Assay: NCI tumour cell line growth inhibition, 48 h
Recorded TGI values for a group of compounds are listed next.
OBSERVATION_TYPE: TGI

Cc1nc(-c2cccnc2)sc1C(=O)/C=C/c1ccc(Cl)cc1Cl
> 100 µM
CC(C)(C)OC(=O)NCCCCC1NC(=O)[C@@H]2Cc3c([nH]c4ccccc34)C(c3ccccc3)N2C1=O (stereo not given in full)
> 100 µM
O=C(NCc1cccnc1)c1ccc([N+](=O)[O-])o1
> 32.5 µM
CN1CCN(Cc2ccc(NC(=O)c3cncc(C#Cc4cnc5cccnn45)c3)cc2C(F)(F)F)CC1
3.49 µM
CC1CC2C(=O)N(c3ccccc3)C(=O)C2c2[nH]c3ccccc3c21 (stereo not given)
> 100 µM
